Assay: qHTS assay for small molecule activators of the heat shock response signaling pathway - cell viability counter screen (AID 743209); further: nearly all actives have a fitted effect of over 50% in size; further: potency means the concentration at half of the fitted maximal effect
Details: HSE-bla HeLa viability, CellTiter-Glo luminescence, 5 h; series mostly up to 62.6 µM
Inconclusive results are not listed. Active and inactive are the calls of the source. The call rests on the fitted dose curve; in most records, active means well fitted cell-killing curve with a large enough effect in the repeat runs; inconclusive means weak or mixed curves, or effect the other way; inactive means no such curve, though single readings can be large or run the other way.
measured endpoint: Potency

{"columns": ["chem smiles", "Potency"],
 "data": [
  ["CCC(CN)=C(c1ccccc1)c1ccccc1", "inactive"],
  ["CCCCCCCCCCCCCCCCCC[N+](C)(C)Cc1ccccc1", "27.8 µM (active)"],
  ["CCN(Cc1cccnc1)C(=O)c1cccc(Cl)c1[C@]1(C)C(=O)N(Cc2ccc(OC)cc2OC)c2ccc(Cl)cc21", "inactive"],
  ["COc1ccc(C(=O)/C(Br)=C\\C(=O)O)cc1", "inactive"]
]}

Lab note: OCCCCCCCCCCCCBr gave Potency of inactive

Lab note: CCN(CCC#N)c1ccc(N=Nc2c(Cl)cc([N+](=O)[O-])cc2Cl)cc1 gave Potency of inactive

Lab note: Nc1nc2ccccc2n1Cc1ccc(F)cc1 gave Potency of inactive

###

Experiment: qHTS assay to identify small molecule antagonists of the estrogen receptor alpha (ER-alpha) signaling pathway using the BG1 cell line - cell viability counter screen (AID 743081);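 further: compound given together with 17beta-estradiol as the ER stimulus; nearly all actives have a fitted effect of over 45% in size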
Settings: BG1Luc4E2 viability, CellTiter-Fluor, 22 h; series mostly up to 70.3 µM
Results filed as inconclusive are left out. The source made the active and inactive calls. Calls follow the shape of the dose curve; as a rule, active = well fitted cell-killing curve with a large enough effect in the repeat runs; inconclusive = weak or mixed curves, or effect the other way; inactive = flat fitted curve, though single readings scatter.
Return exactly one item of YES (active), NO (inactive)

Examples with answers:
{"columns": ["compound", "label"],
 "data": [
  ["COc1cccc2c1C(=O)c1c(O)c3c(c(O)c1C2=O)C[C@@](O)(C(=O)CO)C[C@@H]3O[C@H]1C[C@H](N)[C@H](O[C@@H]2CCCCO2)[C@H](C)O1", "YES"],
  ["CN(C)c1ccc(SC#N)cc1", "NO"],
  ["COc1cc(-c2nc(NC(=O)c3cc4cc(C)cc(C)c4n3CC(=O)O)sc2CCC2CCCCC2)c(OC)cc1Cl", "NO"],
  ["Cc1cc2c(cc1C(F)(F)F)N(C(=O)Nc1ccc(Oc3cccnc3C)nc1)CC2", "NO"],
  ["N/C(=N\\N=C\\c1ccc(Cl)cc1)N/N=C/c1ccc(Cl)cc1", "NO"]
]}

(Q) Which outcome was assigned to c1cc(C(c2ccc(OCC3CO3)cc2)c2ccc(OCC3CO3)cc2)ccc1OCC1CO1 (centres undefined) in this test?
(A) NO

(Q) Which outcome was assigned to [Cl][Bi]([Cl])([c]1ccccc1)([c]1ccccc1)[c]1ccccc1 in this test?
(A) YES

(Q) Which outcome was assigned to CN(C)c1ccc(C2(c3ccc(N(C)C)cc3)OC(=O)c3cc(N(C)C)ccc32)cc1 in this test?
(A) NO

(Q) Which outcome was assigned to O=C1Cc2cc(CCN3CCN(c4nsc5ccccc45)CC3)c(Cl)cc2N1 in this test?
(A) NO

(Q) Which outcome was assigned to O=[N+]([O-])c1cc(Cl)c(Cl)c(Cl)c1Cl in this test?
(A) NO

(Q) Which outcome was assigned to COc1c(C)c2c(c(O)c1C/C=C(\C)CCC(=O)O)C(=O)OC2 in this test?
(A) NO

(Q) Which outcome was assigned to CSc1cnc(C)cn1 in this test?
(A) NO

(Q) Which outcome was assigned to CCCCN1C(=O)[C@@H]([C@H](O)C2CCCCC2)NC(=O)C12CCN(Cc1ccc(Oc3ccc(C(=O)O)cc3)cc1)CC2 in this test?
(A) NO

(Q) Which outcome was assigned to O=C(c1ccc(O)cc1O)c1ccc(O)cc1O in this test?
(A) NO

###

Test: A CellTox Green Cytotoxicity Assay to monitor cytotoxicity in HEK293 cells - 8 hour (AID 1224884); further: nearly all actives have a fitted effect of over 35% in size
Conditions: CellTox Green fluorescence; series mostly up to 76.8 µM
Records with an inconclusive call do not appear. Activity calls are given as the source filed them. The call rests on the fitted dose curve; in most records, active means well fitted activation curve with a large enough effect in the repeat runs; inconclusive means weak or mixed curves; inactive means flat fitted curve, though single readings scatter.
Return exactly one item of True = active, False = inactive

Examples with answers:
{"columns": ["compound", "label"],
 "data": [
  ["CCCCN(CCCC)C(=O)N(CCCC)CCCC", "False"],
  ["Cc1cc(C2CCCCC2)n(O)c(=O)c1", "False"]
]}

(Q) Which outcome was assigned to CCC1OCC(COc2ccc(Oc3ccccc3)cc2)O1 (stereo unspecified) in this test?
(A) False

(Q) Which outcome was assigned to CC(C)n1nc(-c2cc3cc(O)ccc3[nH]2)c2c(N)ncnc21 in this test?
(A) False

###

Test: qHTS assay for small molecule agonists of the antioxidant response element (ARE) signaling pathway - cell viability counter screen (AID 743203); further: nearly all actives have a fitted effect of over 55% in size
Conditions: ARE-bla HepG2 viability, CellTiter-Glo luminescence, 16 h; series mostly up to 73.3 µM
Records with an inconclusive call do not appear. The source made the active and inactive calls. Calls follow the shape of the full dose curve.
Return exactly one item of yes (1) (active), no (0) (inactive)

Examples with answers:
{"columns": ["compound", "label"],
 "data": [
  ["CCN(CCC#N)c1ccc(N=Nc2c(Cl)cc([N+](=O)[O-])cc2Cl)cc1", "no (0)"],
  ["Nc1ccc2cc(S(=O)(=O)O)cc(O)c2c1N=Nc1ccccc1C(F)(F)F", "no (0)"]
]}

(Q) Which outcome was assigned to O=C1CCCCCN1SSN1CCCCCC1=O in this test?
(A) no (0)

(Q) Which outcome was assigned to O=C1C=CC(=O)N1c1ccc(Cc2ccc(N3C(=O)C=CC3=O)cc2)cc1 in this test?
(A) yes (1)

(Q) Which outcome was assigned to CCCCN1CCCC[C@H]1C(=O)Nc1c(C)cccc1C in this test?
(A) no (0)

(Q) Which outcome was assigned to CCc1cc(Cc2cc(CC)cc(C(C)(C)C)c2O)c(O)c(C(C)(C)C)c1 in this test?
(A) yes (1)

(Q) Which outcome was assigned to CCCCCCCCCCCCCCCCCC[N+](C)(C)Cc1ccccc1 in this test?
(A) yes (1)

(Q) Which outcome was assigned to Cc1cccc(N(C)C(=S)Oc2ccc3c(c2)C2CCC3C2)c1 (configuration not stated) in this test?
(A) no (0)

(Q) Which outcome was assigned to N=C1N=C(N)c2ccccc21 in this test?
(A) yes (1)

###

Experiment: qHTS assay for identifying genotoxic compounds that show differential cytotoxicity against isogenic chicken DT40 cell lines with known DNA damage response pathways - Rad54/Ku70 mutant cell line (AID 743015); further: nearly all actives have a fitted effect of over 60% in size
Conditions: DT40 Rad54/Ku70 mutant viability, CellTiter-Glo, 40 h; series mostly up to 66.8 µM
Records with an inconclusive call do not appear. Calls of active or inactive are those of the source. Calls follow the shape of the dose curve; as a rule, active = well fitted cell-killing curve with a large enough effect in the repeat runs; inconclusive = weak or mixed curves; inactive = no such curve, though single readings can be large or run the other way.
Return exactly one item of 1 for active, 0 for inactive

Examples with answers:
{"columns": ["compound", "label"],
 "data": [
  ["O=C(Oc1cccc2cccnc12)c1ccccc1", 1],
  ["CCCCCCCCCCCCCC[P+](CCCC)(CCCC)CCCC (tested in a mixture with another compound)", 1],
  ["CCCN(CCC)c1c([N+](=O)[O-])cc(C(F)(F)F)c(N)c1[N+](=O)[O-]", 1],
  ["CCCC(=O)OC[C@@H](OC(=O)CCC)[C@@H](OC(=O)CCC)[C@H](Cn1c2nc(=O)[nH]c(=O)c-2nc2cc(C)c(C)cc21)OC(=O)CCC", 1],
  ["Nc1ccc2cc(S(=O)(=O)O)cc(O)c2c1N=Nc1ccccc1C(F)(F)F", 0]
]}

Moving on to the next compound.
(Q) Which outcome was assigned to CSc1cnc(C)cn1 in this test?
(A) 0

###

Target: Nuclear receptor ROR-gamma (Homo sapiens)
Assay: qHTS assay to identify small molecule antagonists of the retinoid-related orphan receptor gamma (ROR-gamma) signaling pathway (AID 1159521; further: nearly all actives have a fitted effect of over 50% in size)
Settings: Tet-on RORgamma CHO cells, RORE-luciferase, 16 h; series mostly up to 92.4 µM
Inconclusive results are not listed. Active and inactive are the calls of the source. Calls follow the shape of the dose curve; as a rule, active = well fitted inhibition curve with a large enough effect in the repeat runs; inconclusive = weak or mixed curves, or effect the other way; inactive = no such curve, though single readings can be large or run the other way.
Return exactly one item of active, inactive

Examples with answers:
{"columns": ["compound", "tested target", "label"],
 "data": [
  ["Oc1ccc2c(c1)-c1ccccc1C2", "Nuclear receptor ROR-gamma (Homo sapiens)", "inactive"],
  ["Cc1nc(-c2ccc3c(c2)CCN(CCC2CCC(NC(=O)/C=C/c4ccc(F)cc4)CC2)CC3)no1 (configuration not stated)", "Nuclear receptor ROR-gamma (Homo sapiens)", "active"],
  ["Nc1cc(C(F)(F)F)ccc1S", "Nuclear receptor ROR-gamma (Homo sapiens)", "active"]
]}

(Q) Which outcome was assigned to CCN(C(=O)N(CC)c1ccccc1)c1ccccc1 in this test?
(A) inactive

(Q) Which outcome was assigned to CN(C)[C@@H]1C(=O)C(C(N)=O)=C(O)[C@@]2(O)C(=O)C3=C(O)c4c(O)cccc4C[C@H]3C[C@@H]12 in this test?
(A) active

(Q) Which outcome was assigned to C=C(C)C(=O)OCC[N+](C)(C)C in this test?
(A) inactive

(Q) Which outcome was assigned to CCCCCCCCCCCCCCCC[N+](C)(C)CCN(Cc1ccc(OC)cc1)c1ncccn1 in this test?
(A) active

(Q) Which outcome was assigned to C/C=C(\C)C(=O)OCc1ccccc1 in this test?
(A) inactive

(Q) Which outcome was assigned to O=c1[nH]sc2ccccc12 in this test?
(A) active

(Q) Which outcome was assigned to CCCCN1C(=O)[C@@H]([C@H](O)C2CCCCC2)NC(=O)C12CCN(Cc1ccc(Oc3ccc(C(=O)O)cc3)cc1)CC2 in this test?
(A) inactive

(Q) Which outcome was assigned to O=C(N/N=C/c1ccccc1O)c1ccncc1 in this test?
(A) active

(Q) Which outcome was assigned to CCN(Cc1cccnc1)C(=O)c1cccc(Cl)c1[C@]1(C)C(=O)N(Cc2ccc(OC)cc2OC)c2ccc(Cl)cc21 in this test?
(A) active

(Q) Which outcome was assigned to CNC(=O)c1ccccc1 in this test?
(A) inactive

(Q) Which outcome was assigned to C=CC(=O)OCC(CO)(COCC(COC(=O)C=C)(COC(=O)C=C)COC(=O)C=C)COC(=O)C=C in this test?
(A) active

(Q) Which outcome was assigned to CCOC(=O)O[C@H](C)OC(=O)c1ccc2c(c1)cc(C(=O)NC1CCN(C(C)C)CC1)n2Cc1cc(-c2ccc(Cl)s2)on1 in this test?
(A) active

(Q) Which outcome was assigned to O=C1C=CC(=O)N1 in this test?
(A) active

(Q) Which outcome was assigned to C1CCCC1 in this test?
(A) inactive

(Q) Which outcome was assigned to CC(C)(C)C(=O)OCOC(=O)C1N2C(=O)CC2S(=O)(=O)C1(C)C (configuration not stated) in this test?
(A) inactive

(Q) Which outcome was assigned to Cc1ccc(O)c(C(C)(C)C)c1 in this test?
(A) inactive
